System: acetylated tubulin (Lys40) in HeLa cells
TEST: Acetylated α-tubulin measurement in vitro (immunocytochemistry)
Type: cell-based
MEASUREMENT SETUP: Homo sapiens, 6 hours incubation, acetylated tubulin (Lys40) by immunocytochemistry, read-out: IC50 (Tubulin deacetylation)
Each entry below carries its recorded IC50.

{"COMPOUND": "COc1ccc2nc(C(F)(F)F)nc(SCC(=O)c3ccc(CNC(=O)C(C)(C)O)s3)c2c1 [Example 134]", "TARGET SYSTEM": "acetylated tubulin (Lys40) in HeLa cells", "IC50": "0.1 to 0.5 µM"}
{"COMPOUND": "O=C(CSc1nc(C(F)(F)F)nc2nn(C3CC3)cc12)c1ccc(CNC(=O)C2CC2(F)F)s1 (centres unmarked) [Example 43]", "TARGET SYSTEM": "acetylated tubulin (Lys40) in HeLa cells", "IC50": "0.1 to 0.5 µM"}
{"COMPOUND": "O=C(CSc1nc(C(F)(F)F)nc2ncccc12)c1ccc(CN2CCC(O)C2=O)s1 (stereo in doubt) [Example 156]", "TARGET SYSTEM": "acetylated tubulin (Lys40) in HeLa cells", "IC50": "≤ 0.1 µM"}
{"COMPOUND": "COc1ccc2nc(C)nc(SCC(=O)c3ccc(CNC(=O)CN)s3)c2c1 [Example 177]", "TARGET SYSTEM": "acetylated tubulin (Lys40) in HeLa cells", "IC50": "≤ 0.1 µM"}
{"COMPOUND": "COc1cnc2nc(C)nc(SCC(=O)c3ccc(CNC(=O)OC(C)(C)C)s3)c2c1 [Example 190]", "TARGET SYSTEM": "acetylated tubulin (Lys40) in HeLa cells", "IC50": "0.1 to 0.5 µM"}
{"COMPOUND": "COc1cc(C(F)(F)F)cc2c(SCC(=O)c3ccc(CNC(=O)CO)s3)nc(C)nc12 [Example 148]", "TARGET SYSTEM": "acetylated tubulin (Lys40) in HeLa cells", "IC50": "≤ 0.1 µM"}
{"COMPOUND": "O=C(CO)NCc1ccc(C(=O)CSc2nccc3ncccc23)s1 [Example 179]", "TARGET SYSTEM": "acetylated tubulin (Lys40) in HeLa cells", "IC50": "≤ 0.1 µM"}
{"COMPOUND": "O=C(CO)NCc1ccc(C(=O)CSc2nc(C(F)(F)F)nc3nn(C4CC4)cc23)s1 [Example 79]", "TARGET SYSTEM": "acetylated tubulin (Lys40) in HeLa cells", "IC50": "≤ 0.1 µM"}

====

Test system: acetylated tubulin (Lys40) in HeLa cells
TEST: Acetylated α-tubulin measurement in vitro (immunocytochemistry)
Assay type: cell-based
MEASUREMENT SETUP: Homo sapiens, 6 hours incubation, acetylated tubulin (Lys40) by immunocytochemistry, read-out: IC50 (Tubulin deacetylation)
Measured IC50 of individual entries
REPORTED ENDPOINT: IC50

{"COMPOUND": "COc1ccc2nc(C)nc(SCC(=O)c3ccc(CNC(=O)[C@H](C)O)s3)c2c1 [Example 185]", "EXPERIMENTAL VALUE": "≤ 100 nM"}
{"COMPOUND": "O=C(CSc1nc(C(F)(F)F)nc2ccc(N3CCOCC3)cc12)c1ccc(CNC(=O)C2(O)CC2)s1 [Example 47]", "EXPERIMENTAL VALUE": "100 to 500 nM"}
{"COMPOUND": "CCn1ncc2c(SCC(=O)c3ccc(CNC(=O)CO)s3)nc(C(F)(F)F)nc21 [Example 136]", "EXPERIMENTAL VALUE": "100 to 500 nM"}
{"COMPOUND": "COc1ccc2nc(C)nc(SCC(=O)c3ccc(CNC(=O)[C@@H](C)O)s3)c2c1 [Example 186]", "EXPERIMENTAL VALUE": "≤ 100 nM"}

====

Tested on: acetylated tubulin (Lys40) in HeLa cells
TEST: Acetylated α-tubulin measurement in vitro (immunocytochemistry)
Type: cell-based
MEASUREMENT SETUP: Homo sapiens, 6 hours incubation, acetylated tubulin (Lys40) by immunocytochemistry, read-out: IC50 (Tubulin deacetylation)

{"COMPOUND": "COc1ccc2nc(C)nc(SCC(=O)c3ccc(CNC(=O)C4(O)CC4)s3)c2c1 [Example 50]", "IC50": "100 to 500 nM"}
{"COMPOUND": "COc1ccc2nc(C)nc(SCC(=O)c3ccc(CNC(=O)CO)s3)c2c1F [Example 158]", "IC50": "100 to 500 nM"}
{"COMPOUND": "O=C(CSc1nc(C(F)(F)F)nc2nn(C3CC3)cc12)c1ccc(CNC(=O)C(F)(F)C(F)(F)F)s1 [Example 44]", "IC50": "100 to 500 nM"}
{"COMPOUND": "CC(C)(C)C(=O)NCc1ccc(C(=O)CSc2nc(C(F)F)nc3ccccc23)s1 [Example 19]", "IC50": "1000 to 3330 nM"}
{"COMPOUND": "Cc1nnc(SCC(=O)c2ccc(CNC(=O)C(C)(C)C)s2)c2ccccc12 [Example 194]", "IC50": "500 to 1000 nM"}
{"COMPOUND": "Cc1nc(SCC(=O)c2ccc(CNC(=O)CO)s2)c2cccnc2n1 [Example 64]", "IC50": "≤ 100 nM"}
{"COMPOUND": "C[C@H](NC(=O)CO)c1ccc(C(=O)CSc2nc(C(F)(F)F)nc3c2cnn3C)s1 [Example 130]", "IC50": "100 to 500 nM"}
{"COMPOUND": "Cn1cc2c(SCC(=O)c3ccc(CNC(=O)C4(O)CC4)s3)nc(C(F)(F)F)nc2n1 [Example 49]", "IC50": "100 to 500 nM"}

====

Test system: acetylated tubulin (Lys40) in HeLa cells
TEST: Acetylated α-tubulin measurement in vitro (immunocytochemistry)
Assay type: cell-based
MEASUREMENT SETUP: Homo sapiens, 6 hours incubation, acetylated tubulin (Lys40) by immunocytochemistry, read-out: IC50 (Tubulin deacetylation)
pIC50: −log10 of the molar value.
Entries and their measured pIC50 follow.
REPORTED ENDPOINT: pIC50

{"COMPOUND": "Cc1nc(SCC(=O)c2ccc(CNC(=O)CO)s2)c2cc(F)ccc2n1", "EXPERIMENTAL VALUE": "6.30 to 7.00"}
{"COMPOUND": "CS(=O)(=O)N1CCC(c2ccc(C(=O)CSc3nc(C(F)(F)F)nc4ccccc34)s2)C1 (centres unmarked)", "EXPERIMENTAL VALUE": "6.00 to 6.30"}
{"COMPOUND": "O=C(CO)NCc1ccc(C(=O)CSc2nc(C(F)(F)F)nc3ncccc23)s1", "EXPERIMENTAL VALUE": "≥ 7.00"}
{"COMPOUND": "Cc1nc(SCC(=O)c2ccc(CNC(=O)CO)s2)c2cc(N3CCN(C)CC3)ccc2n1", "EXPERIMENTAL VALUE": "≥ 7.00"}
{"COMPOUND": "Cc1nc(SCC(=O)c2ccc(CNC(=O)C3CC3(F)F)s2)c2cccnc2n1 (centres unmarked)", "EXPERIMENTAL VALUE": "≥ 7.00"}
{"COMPOUND": "Cn1ncc2c(SCC(=O)c3ccc(CNC(=O)C4CC4)s3)ncnc21", "EXPERIMENTAL VALUE": "5.48 to 6.00"}
{"COMPOUND": "CCOc1cc2c(SCC(=O)c3ccc(CNC(=O)CO)s3)nc(C)nc2cn1", "EXPERIMENTAL VALUE": "≥ 7.00"}
{"COMPOUND": "Cc1nc(SCC(=O)c2ccc(CNC(=O)CO)s2)c2cc(OC(F)(F)F)ccc2n1", "EXPERIMENTAL VALUE": "≥ 7.00"}

====

In this section we review reported pIC50 values for a set of compounds.
Tested on: acetylated tubulin (Lys40) in HeLa cells
TEST: Acetylated α-tubulin measurement in vitro (immunocytochemistry)
Type: cell-based
MEASUREMENT SETUP: Homo sapiens, 6 hours incubation, acetylated tubulin (Lys40) by immunocytochemistry, read-out: IC50 (Tubulin deacetylation)
Protocol: HeLa cells were cultured in UltraCulture serum-free medium (Lonza) supplemented with 2 mM glutamine (Lonza). Assays were performed at 96-well or 384-well format, differences in assay protocols are detailed in Table 6. […] Levels of acetylated tubulin (Lys40) were assessed by immunocytochemistry using target-specific antibodies. […] Cytoplasmic (defined by total α-tubulin staining) intensities per well were used for α-tubulin (acetylated and total) quantification. […]
pIC50: −log10 of the molar value.
REPORTED ENDPOINT: pIC50

{"COMPOUND": "COCC(=O)NCc1ccc(C(=O)CSc2nc(C)nc3ncc(OC)cc23)s1", "TARGET SYSTEM": "acetylated tubulin (Lys40) in HeLa cells", "EXPERIMENTAL VALUE": "6.30 to 7.00"}
{"COMPOUND": "COc1ccc2nc(C)nc(SCC(=O)c3ccc(CN(C)C(=O)CO)s3)c2c1", "TARGET SYSTEM": "acetylated tubulin (Lys40) in HeLa cells", "EXPERIMENTAL VALUE": "6.30 to 7.00"}
{"COMPOUND": "COc1cc2c(SCC(=O)c3ccc(CNC(=O)CO)s3)nc(C(F)(F)F)nc2cn1", "TARGET SYSTEM": "acetylated tubulin (Lys40) in HeLa cells", "EXPERIMENTAL VALUE": "≥ 7.00"}
{"COMPOUND": "CN(Cc1ccc(C(=O)CSc2ncnc3c2cnn3C)s1)C(=O)C1CC1", "TARGET SYSTEM": "acetylated tubulin (Lys40) in HeLa cells", "EXPERIMENTAL VALUE": "5.48 to 6.00"}
{"COMPOUND": "Cn1ncc2c(SCC(=O)c3ccc(CNC(=O)c4ccccc4)s3)ncnc21", "TARGET SYSTEM": "acetylated tubulin (Lys40) in HeLa cells", "EXPERIMENTAL VALUE": "5.48 to 6.00"}
{"COMPOUND": "O=C(CSc1nc(C(F)(F)F)nc2ncccc12)c1ccc(CN2CCC(O)C2=O)s1 (stereo in doubt) [Example 155]", "TARGET SYSTEM": "acetylated tubulin (Lys40) in HeLa cells", "EXPERIMENTAL VALUE": "≥ 7.00"}
{"COMPOUND": "COc1ccc2nc(C)nc(SCC(=O)c3ccc(CNC(=O)C(F)F)s3)c2c1", "TARGET SYSTEM": "acetylated tubulin (Lys40) in HeLa cells", "EXPERIMENTAL VALUE": "6.30 to 7.00"}
{"COMPOUND": "Cc1nc(SCC(=O)c2ccc(CNC(=O)CO)s2)c2ccc(F)cc2n1", "TARGET SYSTEM": "acetylated tubulin (Lys40) in HeLa cells", "EXPERIMENTAL VALUE": "6.30 to 7.00"}

Where do the numbers come from? From patent US12421222B2.
